system: CCRIS mutagenicity, Ames/micronucleus/aberration tests; test: CCRIS mutagenicity studies; details: Test System: AMES SALMONELLA TYPHIMURIUM; Strain/Indicator: TA98; Metabolic Activation: NONE; Method: PREINCUBATION
Activity calls are given as the source filed them. The rule behind the calls is not given here.
Please answer using one outcome listed in TRUE (active), FALSE (inactive)

Take a look at these entries with their results.
C=CC(=O)NCO; FALSE
Nc1cccc2nc3cccc(N)c3nc12; FALSE
FCC1CO1 (stereo unspecified); FALSE
CCN(CC)CCOc1ccc(C(=C(Cl)c2ccccc2)c2ccccc2)cc1; FALSE
C=CCc1ccc2c(c1)OCO2; FALSE

Outcome logged for O=C1C=Cc2c(ccc3cc4ccccc4cc23)C1=O in this assay:
FALSE

Outcome logged for O=P(OC(CCl)CCl)(OC(CCl)CCl)OC(CCl)CCl in this assay:
FALSE

The values you see were collected from PubChem BioAssay AID1259407.
